Values were extracted from the supplement of paper PMC10883282.

System: KHOS-NP
Assay: relative viability vs DMSO control (72 h) (fraction); higher = more viable cells
Conditions: 0.1235 µM
relative viability for assorted compounds

[
  {
    "SMILES_ENTRY": "CNC(=O)c1c(C)oc2cc(Oc3ncnc4cc(OC)c(OC)cc34)ccc12",
    "relative viability": 1.08
  },
  {
    "SMILES_ENTRY": "CN(C)C(=O)c1cc2cnc(Nc3ccc(N4CCNCC4)cn3)nc2n1C1CCCC1",
    "relative viability": 1.07
  },
  {
    "SMILES_ENTRY": "Cc1c2oc3c(C)ccc(C(=O)N[C@@H]4C(=O)N[C@H](C(C)C)C(=O)N5CCC[C@H]5C(=O)N(C)CC(=O)N(C)[C@@H](C(C)C)C(=O)O[C@@H]4C)c3nc-2c(C(=O)N[C@@H]2C(=O)N[C@H](C(C)C)C(=O)N3CCC[C@H]3C(=O)N(C)CC(=O)N(C)[C@@H](C(C)C)C(=O)O[C@@H]2C)c(N)c1=O",
    "relative viability": 0.0945
  },
  {
    "SMILES_ENTRY": "CN(C)C/C=C/C(=O)Nc1cc2c(Nc3ccc(F)c(Cl)c3)ncnc2cc1O[C@H]1CCOC1",
    "relative viability": 1.06
  },
  {
    "SMILES_ENTRY": "COC(=O)c1ccc2c(c1)NC(=O)/C2=C(\\Nc1ccc(N(C)C(=O)CN2CCN(C)CC2)cc1)c1ccccc1",
    "relative viability": 1.05
  },
  {
    "SMILES_ENTRY": "C=CC(=O)N1CCC(CNc2ncnc(N)c2-c2ccc(Oc3ccccc3)cc2)CC1",
    "relative viability": 1.12
  },
  {
    "SMILES_ENTRY": "CNC(=O)c1cccc2cc(Oc3ccnc4cc(OCC5(N)CC5)c(OC)cc34)ccc12",
    "relative viability": 1.13
  }
]
